- System: SARS-CoV-2
- Format: cell-based
ENDPOINT NAME: pEC50
Please express pEC50 as -log10 of the molar concentration.

Per the records, this compound ( CCNCc1cc(Nc2ccnc3cc(Cl)ccc23)ccc1O ) has pEC50 equal to 5.40

* * *

- System: Vero E6 cells
- ASSAY SETUP: Vero E6, absence of virus, UTHSC
ENDPOINT NAME: CC50

Note to self: CC50 of CCNCc1cc(Nc2ccnc3cc(Cl)ccc23)ccc1O [N-monodesethyl amodiaquine] with Vero E6 cells was 5.9 µM
